- System: HepG2
- procedureSummary: Insulin-sensitizing activity in human HepG2 cells assessed as increase in glucose consumption at 10 uM relative to control
- Type: functional
Response field label takes rule met when Activity is strictly below 20% and rule not met in all other cases.

Query :: Report whether reported Activity is lower than 20% (strictly) for "COc1cc(O)c(C(=O)O)c(CC(=O)c2ccccc2)c1CC=C(C)C"
Result :: rule not met

Query :: Please check: Activity for "COc1cc(O)c(C(=O)O)c(CC(=O)c2ccc(Cl)cc2Cl)c1CC=C(C)C" , strictly under 20% or not?
Result :: rule not met

Query :: Hi there! Is Activity for "COc1cc(O)c(C(=O)O)c(CC(=O)c2ccc(F)cc2)c1" below 20%, do you know?
Result :: rule met
